# testSummary: probe aCHRDL2 binding to arrayed compounds – biochemical, biotinylated probe, 635/667 nm fluorescence, primary screen (AID 1100)
# experimentalSetup: small-molecule microarray, higher = more signal
As shown below, each of these molecules has a reported composite z-score value.

Here is how some molecules turned out for composite z-score.
O=C1NC(=O)C2C1C=CC(C(O)C1CC=CCC1)N2Nc1ccccn1 (stereo not given) :: 0.21
[N-]=[N+]=Nc1ccccc1[C@H]1OC(c2ccc(OCCCO)cc2)=N[C@@]1(Cc1ccccc1)C(=O)N1CCOCC1 :: 1.08
C=C(/C(=C/C[C@H](OC(=O)c1ccncc1)c1ccc(OCCO)cc1)c1cc(C(=O)OC)ccc1OC)C(C)C :: 0.244
[N-]=[N+]=NCc1ccccc1C[C@@]1(C(=O)NCC(O)CO)N=C(c2ccc(OCCCO)cc2)O[C@@H]1c1ccccc1 (stereo not given in full) :: 1.22
[N-]=[N+]=NCc1ccccc1[C@@H]1OC(c2ccc(OCCCO)cc2)=N[C@]1(CCS(=O)(=O)c1ccccc1)C(N)=O :: 1.01
CC(=CC1CCCCC1)[C@@H](NC(=O)c1cccnc1)c1ccc(-c2ccccc2)cc1 :: 0.849
CO[C@H]1O[C@H](CO)[C@@H](OC(=O)Nc2ccccc2-c2ccccc2)[C@H](OC(=O)Nc2ccccc2-c2ccccc2)[C@@H]1OC(=O)Nc1ccccc1-c1ccccc1 :: 0.625
CC(C)[Si](C#CCCCC#N)(Oc1ccccc1Br)C(C)C :: -0.536
CC1CC/C=C\[C@H]2OC34C=CCN(Cc5ccccc5)C(=O)[C@H]3N(C(C)CO)C(=O)[C@@H]4C2C(=O)O1 (stereo not given in full) :: -0.506

Then there is this molecule:
Just so you know, measured composite z-score for `COC(=O)c1c(CC[C@@H](CO)NC(=O)N[C@@H](Cc2ccccc2)Cn2cc(-c3ccccn3)nn2)oc(C(=O)N2CCOCC2)c1C(=O)OC` came out at -0.247

====

# testSummary: hepatitis C replication reporter changes, two-sided – Huh7 cells, luciferase reporter, HCV replication inhibitor project, primary screen (AID 1109);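 also: huh7 hepatoma cells harbouring a luciferase neomycin HCV replicon reporter; luciferase luminescence as measure of HCV replicon replication; test concentration not given here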
# experimentalSetup: Huh7 HCV replicon luciferase reporter, 48 h; higher = more signal
Answer NOT MET if z-score is under -1, and MET if it is -1 or more.

C#CCN(C/C=C/c1ccccc1)[C@H](CO)c1ccccc1 :: NOT MET
O=C1[C@H]2C=C(I)[C@H](C[C@@H]2OCCCCO)[C@@]12CO2 :: NOT MET
C=CCC(OC(C)=O)[C@@H]1[C@@H](N(Cc2cc3ccccc3o2)C(=O)Cc2ccc(OC)cc2)c2cc(OCCCO)ccc2N1C(=O)c1ccc2ccccc2c1 (some centres not stated) :: MET
CCCNC(=O)[C@@]1(Sc2ccc(C)cc2)CC(=O)N(Cc2ccccc2C(F)(F)F)[C@@H]1c1ccc(CO)cc1I :: NOT MET
O=C1O[C@@H](c2ccccc2)[C@@H](c2ccccc2)N2[C@@H](c3ccc(OCCO)cc3)[C@]3(C(=O)Nc4ccc(C#CC5=CCCCC5)cc43)[C@@H](C(=O)N3CCCCCCC3)[C@H]12 :: NOT MET
CC(C)NC(=O)[C@@]1(Cc2ccccc2I)c2ccccc2C(=O)N(Cc2ccccc2Cl)[C@H]1c1ccc(CO)cc1 :: NOT MET

Check this compound for z-score at or above -1: `CCOC(=O)C[C@H]1[C@H](OC(=O)c2ccc(C(=O)c3ccccc3)cc2)[C@@H](NC(=O)Cc2ccc(OC)cc2)c2cc(OCCCO)ccc2N1C(=O)c1ccc2ccccc2n1` MET

Confirm if z-score reported for the compound `COCC(=C=CC[C@@H](O)c1ccc(OCCO)cc1)C[C@@H](O)c1ccccn1` is -1 or above. NOT MET

Is z-score for N#Cc1ccc(C(O)C2C=CC3C(=O)N(c4ccccc4)C(=O)C3N2Nc2ccccc2F)cc1 (configuration not stated) at or above -1? MET

Answer whether z-score of `COC(=O)c1c(CC[C@@H](CO)NC(=O)N[C@H](Cc2ccccc2)Cn2cc(-c3ccccn3)nn2)oc(C(C)=O)c1C(=O)OC` is greater than or equal to -1. MET

====

# systemName: Epidermal growth factor receptor (Homo sapiens)
# testSummary: compounds binding epidermal growth factor receptor – biochemical, small-molecule microarray, 635 nm fluorescence, primary screen (AID 1104);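 also: score merges 667 nm emission intensity with spot signal to noise over triplicate slides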
# experimentalSetup: EGFR binding, higher = more signal
Is composite z-score at least -0.4? Then yes. If not, no.

Worked examples follow.
CC(=CC1CCCCC1)[C@@H](NC(=O)c1cccnc1)c1ccc(-c2ccccc2)cc1 :: no
C#CCOc1ccc(C[C@@H](C(=O)OC)N(CC#C)[C@@H](/C=C/C2CC2)[C@H](O)Cc2ccccc2)cc1 :: no
CCOC(=O)C[C@H]1[C@H](OC(=O)c2ccc(-c3ccccc3)cc2)[C@@H](NC(=O)c2ccccc2)c2cc(OCCCO)ccc2N1C(=O)Cc1ccc(OC)cc1 :: yes
C=CC[C@]1(C(=O)N2CCOCC2)N=C(c2ccc(OCCCO)cc2)O[C@H]1c1ccccc1N=[N+]=[N-] :: yes

Does the reported composite z-score for `Cc1ccc(S(=O)(=O)N2C[C@@H](C(=O)O)[C@H](Sc3ccccc3)C[C@H]2c2ccccc2)cc1` fall at or above the -0.4 mark? yes

====

# systemName: Calmodulin-1 (Homo sapiens)
# testSummary: small molecules binding Ca-loaded calmodulin-1 – biochemical, small-molecule microarray, Cy5-labelled CALM1, plus calcium, artefact control for SMM control-protein annotation, profiling panel (AID 1112);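 also: score merges spot fluorescence with signal to noise from triplicate slides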
# experimentalSetup: Cy5-CALM1 binding fluorescence, higher = more signal
readoutName: composite z-score

O=C1NC(=O)C2C1C=CC(C(O)c1ccc(I)cc1)N2Nc1ccc(Cl)cc1Cl (stereo not drawn) :: 0.99
COCCCNC(=O)[C@@H]1c2ccccc2C(=O)N(Cc2ccccc2OC)[C@H]1c1ccc(CO)cc1 :: 0.392

Input CC=CC(O)C1C=CC2C(=O)N(C)C(=O)C2N1N(c1ccccc1)c1ccccc1 (stereo not drawn) . Output composite z-score: -1.3

====

# systemName: Follistatin-related protein 3 (Homo sapiens) (UniProt O95633)
# Sequence (O95633 whole entry, looked up): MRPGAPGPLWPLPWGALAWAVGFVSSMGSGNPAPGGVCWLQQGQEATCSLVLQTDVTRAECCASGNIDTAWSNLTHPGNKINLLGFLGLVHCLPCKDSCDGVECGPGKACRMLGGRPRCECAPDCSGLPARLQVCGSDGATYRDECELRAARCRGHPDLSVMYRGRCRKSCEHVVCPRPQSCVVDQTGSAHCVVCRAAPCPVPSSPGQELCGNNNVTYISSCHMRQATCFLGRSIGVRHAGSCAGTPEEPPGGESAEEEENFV
# testSummary: compounds binding follistatin-related protein 3 – biochemical, small-molecule microarray, 635 nm fluorescence, primary screen (AID 1105);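 also: score merges emission near 667 nm and signal to noise per printed spot across three slides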
# experimentalSetup: FSTL3 binding, higher = more signal
readoutName: composite z-score
Give a plain numeric answer without units written out.

Worked set:
COc1ccc(-c2cc3c(c(Cc4ccccc4)n2)[Si](C(C)C)(C(C)C)OC3)cn1 :: -0.139
CC(C)[Si](C#C[Si](C(C)C)(C(C)C)C(C)C)(O[C@H](C)c1cn(Cc2ccccc2)nn1)C(C)C :: 0.688
O=C1NC(=O)C2C1C=CC(C(O)C=Cc1ccc([N+](=O)[O-])cc1)N2Nc1ccc(Cl)cc1Cl (centres undefined) :: 1.02
C=CCOC(=O)[C@H]1[C@@H]2C(=O)O[C@@H](c3ccccc3)[C@@H](c3ccccc3)N2[C@@H](c2ccc(OCCOC(=O)[C@H]3C[C@H]4C(=O)N[C@@H](CCCCN(C)C)C(=O)N4[C@H]3c3cccc(OCCO)c3)cc2)[C@]12C(=O)Nc1ccc(I)cc12 :: 1.46
CCOC(=O)C1=CC[C@@H](c2ccc(C(F)(F)F)cc2)N(S(=O)(=O)c2ccc(C)cc2)[C@H]1c1ccccc1 :: 0.799
C=C(C(=O)CC[C@H](OC(C)=O)c1ccccc1OCCO)C(C)C :: -0.226
CCCC=C(CCC)[C@@H](NC(=O)OCC(C)C)c1ccccc1 :: 0.663
C=CC[C@@]1(C(=O)N2CCCCC2)N=C(c2ccc(OCCCO)cc2)O[C@@H]1c1ccccc1CN=[N+]=[N-] :: 1.15

For this compound ( `CO[C@H]1O[C@H](CO)[C@@H](OC(=O)Nc2ccc(Br)cc2)[C@@H]2OC(=O)[C@H](Cc3cccc(Br)c3)C/C=C/C[C@@H](Cc3cccc(Br)c3)C(=O)O[C@@H]12` ), measured composite z-score is 0.285

Item: `COCCCNC(=O)[C@@]1(Cc2ccccc2CN=[N+]=[N-])N=C(c2ccc(OCCCO)cc2)O[C@H]1c1ccccc1CN=[N+]=[N-]` | composite z-score: 0.299

Reported composite z-score of CC(C)CCC[C@@H](C)[C@H]1CC[C@@]2(C)C3=C(CC[C@]12C)[C@@]1(C)CC[C@H](OC(=O)c2ccc(C(F)(F)F)nc2)C(C)(C)C1CC3 (some centres undefined) : 0.627

Data point: `CO[C@H]1O[C@H](CO)[C@@H](OC(=O)Nc2cccc(F)c2)[C@H](OC(=O)Nc2ccccc2)[C@H]1OC(=O)Nc1ccccc1` ; composite z-score = 1.49

Entry CCCCCN1CC=CC23O[C@@H]4C=CCOC(=O)[C@@H]4[C@H]2C(=O)N(C(C)CO)[C@@H]3C1=O (some centres undefined) , composite z-score reported as -1.25

Sample `O=C(CS)NCCCCCNC(=O)[C@H]1C[C@H]2C(=O)NCC(=O)N2[C@H]1c1ccc(O)cc1` ; composite z-score observed: -0.749

# compound CN1CCC(CCCO)=CC1c1cccs1 (centres undefined) ; its composite z-score = -0.61
